Cited source: patent US20200055939A1

Reported values of pKd for individual entries
- study target: T1, huMICA*008 alpha 3-his (human)
- T1 construct: whole construct entry: GS, alpha 3 domain (Thr204-Ser297), GNS, His8; also the construct of the FPOP experiment; also called MICA008.His; MICA*008 alpha3 construct
- T1 chain: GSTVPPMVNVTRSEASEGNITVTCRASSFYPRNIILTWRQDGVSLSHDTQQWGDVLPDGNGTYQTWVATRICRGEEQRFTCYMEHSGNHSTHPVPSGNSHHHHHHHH
- procedure text: SPR, Biacore 8K, antibody on Protein A chip
In textbook form, pKd equals minus log to base ten of the concentration in mol/L.

Before answering, review these 2 worked examples.
{"columns": ["binder", "pKd"],
 "data": [
  ["1D5v13 (antibody, IgG1, V domains shown, humanized variant of 1D5) VH: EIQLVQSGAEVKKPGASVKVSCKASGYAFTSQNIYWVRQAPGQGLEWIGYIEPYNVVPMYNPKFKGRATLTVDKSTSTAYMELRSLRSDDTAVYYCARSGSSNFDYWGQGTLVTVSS VL: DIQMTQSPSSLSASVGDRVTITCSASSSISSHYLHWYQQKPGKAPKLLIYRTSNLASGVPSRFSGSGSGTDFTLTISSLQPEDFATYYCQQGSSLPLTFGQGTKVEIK", 9.07],
  ["1D5v5 (antibody, IgG1, V domains shown, humanized variant of 1D5) VH: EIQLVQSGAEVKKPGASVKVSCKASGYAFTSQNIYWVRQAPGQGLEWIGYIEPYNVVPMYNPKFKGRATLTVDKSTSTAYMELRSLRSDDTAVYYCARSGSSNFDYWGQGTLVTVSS VL: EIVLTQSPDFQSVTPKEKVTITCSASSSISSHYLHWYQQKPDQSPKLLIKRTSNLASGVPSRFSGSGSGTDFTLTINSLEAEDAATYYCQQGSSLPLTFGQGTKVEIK", 8.79]
]}

Query pKd for 13A9 (antibody, V domains shown, mouse variable domains) VH: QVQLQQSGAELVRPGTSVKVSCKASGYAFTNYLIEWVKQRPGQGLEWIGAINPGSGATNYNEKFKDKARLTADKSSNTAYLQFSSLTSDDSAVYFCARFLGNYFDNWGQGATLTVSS VL: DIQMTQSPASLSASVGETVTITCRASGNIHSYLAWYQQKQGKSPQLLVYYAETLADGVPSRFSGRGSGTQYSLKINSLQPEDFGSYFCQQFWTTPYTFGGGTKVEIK
8.63
